For each record, write down the corresponding IC50.
# TARGET SYSTEM: recombinant human ALK enzyme (ALK WT) (Homo sapiens)
# Construct: purchased Carna Biosciences 08-518
# Sequence (Q9UM73 1058-1620 limits assumed): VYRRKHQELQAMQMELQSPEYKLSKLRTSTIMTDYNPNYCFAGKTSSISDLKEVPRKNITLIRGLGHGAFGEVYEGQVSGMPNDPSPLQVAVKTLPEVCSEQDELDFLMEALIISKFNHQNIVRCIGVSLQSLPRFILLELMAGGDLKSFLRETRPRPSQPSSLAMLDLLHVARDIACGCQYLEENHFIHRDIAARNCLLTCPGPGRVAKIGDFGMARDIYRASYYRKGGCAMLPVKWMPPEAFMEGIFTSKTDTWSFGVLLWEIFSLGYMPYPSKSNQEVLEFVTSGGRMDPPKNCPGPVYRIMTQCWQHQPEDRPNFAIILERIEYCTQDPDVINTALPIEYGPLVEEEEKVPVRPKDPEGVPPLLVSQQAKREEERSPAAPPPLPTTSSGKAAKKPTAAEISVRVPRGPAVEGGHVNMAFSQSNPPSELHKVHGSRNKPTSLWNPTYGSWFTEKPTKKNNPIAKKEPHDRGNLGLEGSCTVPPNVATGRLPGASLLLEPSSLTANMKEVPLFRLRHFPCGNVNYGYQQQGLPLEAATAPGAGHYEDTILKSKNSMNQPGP
# ASSAY PROTOCOL: ALK WT cell free enzymatic assay (TR-FRET)
# Assay type: biochemical
# SETUP CONDITIONS: 10 point dose response; 1 μM ATP

Value of IC50 reported for the molecule "COc1ccc(-c2cnc3[nH]cc(-c4cnn(Cc5cccc(F)c5)c4)c3c2)cc1NS(C)(=O)=O" is < 50 nM

Consider "O=C(CO)N1CCN(c2ccc(-c3cnc4[nH]cc(-c5cnn(Cc6cccc(F)c6)c5)c4c3)cn2)CC1" . Its measured IC50 is < 50 nM

Query "Fc1cccc(Cn2cc(-c3c[nH]c4ncc(-c5ccc(N6CCNCC6)c(F)c5)cc34)cn2)c1" yields IC50 of < 50 nM

What the record says about "COc1ccc(-c2cnc3[nH]cc(-c4cnn(CCc5ccc(F)cc5)c4)c3c2)cc1NS(C)(=O)=O" : IC50 is 50 to 250 nM

Each recorded value in this set is attributed to patent US9353107B2.
